Data credit: PubChem BioAssay (NCI)

# Tested on: ACHN renal
# method.notes: NCI tumour cell line growth inhibition, 48 h
parameter.measured: TGI

Below: 10 molecules and their reported TGI.
molecule	TGI
CC(C)(C)OC(=O)NCCNC1=CC(=O)c2nc3ccccc3c3ccnc1c23	76.8 µM
Nc1ccn(C2OC(CO)C(O)C2F)c(=O)n1 (stereo not drawn)	> 5000 µM
COc1cc(/C(Cl)=C/C=C/C(=O)c2c(C)[n+]([O-])c3ccc(Cl)cc3[n+]2[O-])cc(OC)c1OC	11.6 µM
CN(C)c1nc2sc3c(c2c(=O)o1)CCCC3	> 100 µM
CCSc1nnc2c(-c3ccccc3)n[nH]c2n1	> 100 µM
CC1CC2C3CC(F)C4=CC(=O)C=CC4(C)C3(F)C(O)CC2(C)C1(O)C(=O)COC(=O)C(C)(C)C (stereo not drawn)	> 100 µM
O=C(O)[C@H]1[C@@H](C2CCCCC2)O[C@@H](C2CCCCC2)O[C@H]1C(F)(F)F	32.7 µM
O=S(=O)(Nc1ncccn1)c1ccc(N=Nc2ccc(O)c3ncccc23)cc1	24.4 µM
Cn1cnc([N+](=O)[O-])c1Sc1nc2cc(Cl)c(F)cc2[nH]1	34.1 µM
CO[C@H](C(=O)[C@@H](O)[C@@H](C)O)[C@@H]1Cc2cc3cc(O[C@H]4C[C@@H](O[C@H]5C[C@@H](O)[C@H](O)C(C)O5)[C@H](O)C(C)O4)c(C)c(O)c3c(O)c2C(=O)[C@H]1O[C@H]1C[C@@H](O[C@H]2C[C@@H](O[C@H]3C[C@@H](OC)[C@H](O)C(C)O3)[C@@H](O)C(C)O2)C(O)(O)C(C)O1 (stereo partly drawn)	> 25 µM

INPUT: If you can, please state the reported TGI value of O=c1[nH]c(=O)n(C2CC(O)C(CO)O2)cc1I (stereo not drawn) .
OUTPUT: > 100 µM

INPUT: If you can, please state the reported TGI value of CCN(CC)CCNC(=O)c1ccccc1NC(=O)C(=O)Nc1ccccc1C(=O)NCCN(CC)CC .
OUTPUT: > 100 µM

INPUT: If you can, please state the reported TGI value of OCC1OC(c2scc3c(=S)nc[nH]c23)C(O)C1O (stereo not drawn) .
OUTPUT: > 67.8 µM
